Entry source: patent US10988433B2

- TARGET_OR_TEST_SYSTEM: rat GPR40 (Rattus norvegicus, UniProt Q8K3T4)
- Sequence (Q8K3T4 whole entry): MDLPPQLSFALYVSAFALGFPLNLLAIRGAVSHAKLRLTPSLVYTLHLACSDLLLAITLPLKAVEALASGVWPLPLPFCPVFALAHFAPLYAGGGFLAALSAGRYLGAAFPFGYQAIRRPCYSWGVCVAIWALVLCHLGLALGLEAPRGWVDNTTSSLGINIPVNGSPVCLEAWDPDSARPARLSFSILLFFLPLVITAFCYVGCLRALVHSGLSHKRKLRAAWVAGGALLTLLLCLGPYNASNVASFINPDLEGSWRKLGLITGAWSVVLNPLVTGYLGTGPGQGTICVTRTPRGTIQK
- EXPERIMENT_NOTES: GPR40 calcium flux assay, HEK293 cells stably expressing rat GPR40
- MEASUREMENT_SETUP: transfected HEK293 cells stably expressing rat GPR40, Fluo 8 dye, read-out: rGPR40 Ca2+ Assay EC50
Mark met only when EC50 stays strictly below 700 nM. Values equal to the cut-off are not met.

COMPOUND | ASSIGNED_CLASS
CCOC(CC(=O)O)c1cccc(OC[C@H]2CC[C@@H](c3cc(OC)ccc3F)CC2)c1 (some centres unmarked) | met
COc1ccc(F)c([C@H]2CC[C@H](COc3cc(C(CC(=O)O)C4CC4)ccn3)CC2)c1 (some centres unmarked) | met
COc1ccc(F)c([C@H]2CC[C@@H](COc3cccc([C@H](CC(=O)O)C4CC4)c3)CC2)c1 | not met
COc1ccc(F)c([C@H]2CC[C@H](COc3cccc([C@H](C4CC4)[C@@](C)(F)C(=O)O)c3)CC2)c1 | met
COc1ccc(F)c(C2=CCC(COc3cccc([C@H](C4CC4)[C@@](C)(F)C(=O)O)c3)CC2)c1 (some centres unmarked) | met
COc1cc([C@]2(OC)CC[C@H](COc3cc([C@@H](CC(=O)O)C4CC4)ccn3)CC2)c(F)cn1 | not met
CCOc1cc([C@H]2CC[C@@H](COc3cc([C@@H](CC(=O)O)C4CC4)ccn3)CC2)c(F)cn1 | met
COc1ccc(F)c([C@]2(O)CC[C@@H](COc3cccc([C@@H](CC(=O)O)C4CC4)c3)CC2)c1 | met
